The measurements presented in this section are drawn from PubChem BioAssay AID2842.

Test system: M. tuberculosis H37Rv growth inhibition
Assay: Mycobacterium tuberculosis H37Rv growth inhibition, putative kinase inhibitor library, confirmatory dose response (AID 2842);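 also: bacteria incubated one week before Alamar blue readout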
resultType: IC90

Cc1ccc(NCCCn2c(C)c(C)n3c4c(=O)[nH]c(=O)n(C)c4nc23)c(C)c1 :: 14.3 µg/mL
Cc1ccccc1C(=O)N=Nc1c(O)[nH]c2ccc(Br)cc12 :: 30.8 µg/mL
CCOc1ccc2nc(Nc3nc4c(OC)cccc4s3)sc2c1 :: 3.75 µg/mL
O=C(Nc1nnc(-c2ccc3c(c2)CCCC3)o1)c1ccc([N+](=O)[O-])s1 :: 0.68 µg/mL

Consider now this further molecule.
Name the recorded IC90 for Cc1ccc(Cl)cc1N1CCN(CC(O)COc2ccccc2[N+](=O)[O-])CC1 (stereo not given) .
13 µg/mL
